- Target: kinase domain of IRE1 alpha (Homo sapiens, UniProt O75460, D688N)
- Construct: (KR, AA G547-L977, D688N)
- Sequence (O75460 547-977 D688N): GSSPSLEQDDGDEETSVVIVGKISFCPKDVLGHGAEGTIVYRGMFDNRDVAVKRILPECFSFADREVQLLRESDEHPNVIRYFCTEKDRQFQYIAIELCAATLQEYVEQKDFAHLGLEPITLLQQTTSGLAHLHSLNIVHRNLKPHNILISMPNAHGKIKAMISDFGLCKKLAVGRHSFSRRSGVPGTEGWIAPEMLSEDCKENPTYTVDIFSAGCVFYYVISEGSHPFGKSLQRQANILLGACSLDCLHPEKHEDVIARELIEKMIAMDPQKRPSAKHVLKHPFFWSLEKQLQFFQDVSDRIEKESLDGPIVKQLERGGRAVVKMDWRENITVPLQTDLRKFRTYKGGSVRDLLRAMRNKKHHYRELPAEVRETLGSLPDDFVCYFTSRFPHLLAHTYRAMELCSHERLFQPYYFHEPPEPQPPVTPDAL
- Experiment description: IRE1α TR-FRET competition binding assay
- Protocol conditions: Kinase Tracer 236 0.1 μM; kinase dead IRE1 alpha KR construct
Examples of compounds with documented log10 of IC50 follow.
Record value = log10 of IC50 given in nM.

// worked examples, log10 of IC50 included
CCCS(=O)(=O)Nc1c(F)ccc2c(Oc3nnccc3-c3ccnc(N[C@@H]4CNC[C@@H](F)C4)n3)c(C)ccc12 [Compound 6]: 0.85
CCCS(=O)(=O)Nc1c(F)ccc2c(Oc3ncncc3-c3ccnc(N[C@@H]4CNC[C@@H](F)C4)n3)c(C)ccc12 [Compound 4]: 0.52
CCCS(=O)(=O)Nc1cccc2c(Oc3nnccc3-c3ccnc(N[C@H]4CCCNC4)n3)c(C)ccc12 [Compound 3]: 1.08
Cc1ccc2c(NS(=O)(=O)c3ccccc3Cl)cccc2c1Oc1nnccc1-c1ccnc(N[C@H]2CCCNC2)n1 [Compound 1]: 0.79

Dear colleague, I am looking for the recorded log10 of IC50 of the following compound: Cc1ccc2c(NS(=O)(=O)CCC(C)(F)F)c(F)ccc2c1Oc1nnccc1-c1ccnc(N[C@@H]2CNC[C@@H](F)C2)n1 [Compound 5]
0.49

Dear colleague, I am looking for the recorded log10 of IC50 of the following compound: Cc1ccc2c(NC(=O)C3CC3)cccc2c1Oc1nnccc1-c1ccnc(N[C@H]2CCCNC2)n1 [Compound 2]
1.58
